pIC50 overview
target: Human immunodeficiency virus type 1 reverse transcriptase (Human immunodeficiency virus 1, UniProt Q72547); experiment: Compound concentration required to inhibit the HIV-1 recombinant Reverse transcriptase (rRT) activity by 50%.
Lab note — pIC50 values are minus log10 of concentrations in M.

Before answering, review these 7 worked examples.
| compound | pIC50 |
| --- | --- |
| CCC(C)Sc1nc(O)cc(Cc2cccc3ccccc23)n1 (centres undefined) | 5.09 |
| Cc1c(Cc2cccc3ccccc23)nc(SC2CCCC2)[nH]c1=O | 4.35 |
| CCC(C)Sc1nc(Cc2ccc3ccccc3c2)c(C)c(=O)[nH]1 (centres undefined) | 4.53 |
| O=c1cc(Cc2cccc3ccccc23)nc(SC2CCCC2)[nH]1 | 4.31 |
| Oc1cc(Cc2ccc3ccccc3c2)nc(SC2CCCCC2)n1 | 4.48 |
| Cc1cccc(Cc2nc(SC3CCCCC3)nc(O)c2C)c1 | 6.05 |
| CCC(C)Sc1nc(O)cc(Cc2ccc3ccccc3c2)n1 (centres undefined) | 5.13 |

Would you kindly look at the next entry?
pIC50 reading for CCC(C)Sc1nc(Cc2cccc3ccccc23)c(C)c(=O)[nH]1 (centres undefined) : 4.65

---

tested on: MT4; assay: Inhibitor activity against resistant HIV-1 strain MC639r was determined.; type: functional, cell-based; conditions: Homo sapiens
experimental.endpoint: EC50

The recorded EC50 for CCC(C)Sc1nc(O)c(C)c(COc2ccccc2)n1 (stereo unspecified) is > 100 µM

---

Reported Ratio by item:
test system: Human immunodeficiency virus type 1; assay: Selectivity index is the ratio of CC50 to EC50; settings: Human immunodeficiency virus 1

| molecule | assay.value |
| --- | --- |
| Cc1c(O)nc(SC2CCCCC2)nc1CCc1ccccc1 | > 11 |
| CCC(C)Sc1nc(O)c(C)c(Cc2cccc3ccccc23)n1 (stereo unspecified) | > 300 |
| Cc1c(O)nc(SC2CCCCC2)nc1Cc1ccc2ccccc2c1 | > 2.4 |

Consider CCC(C)Sc1nc(O)c(C)c(CCc2ccccc2)n1 (stereo unspecified) . Its measured Ratio is 6

Briefly, Ratio measured for `Cc1c(O)nc(SC2CCCC2)nc1CSc1ccccc1` : > 2

Lab note: measured Ratio of `Oc1cc(CCc2ccccc2)nc(SC2CCCCC2)n1` was 1.9
